Listed here are compounds together with their documented IC50.
- SUBJECT_OF_TEST: PI3Kα (Homo sapiens)
- Construct: endogenous in cells; host or cells: Jurkat (ATCC TIB-152, clone E6-1) and Ramos (ATCC CRL-1596), 1:1 lysate mix
- Sequence (P42336 whole entry): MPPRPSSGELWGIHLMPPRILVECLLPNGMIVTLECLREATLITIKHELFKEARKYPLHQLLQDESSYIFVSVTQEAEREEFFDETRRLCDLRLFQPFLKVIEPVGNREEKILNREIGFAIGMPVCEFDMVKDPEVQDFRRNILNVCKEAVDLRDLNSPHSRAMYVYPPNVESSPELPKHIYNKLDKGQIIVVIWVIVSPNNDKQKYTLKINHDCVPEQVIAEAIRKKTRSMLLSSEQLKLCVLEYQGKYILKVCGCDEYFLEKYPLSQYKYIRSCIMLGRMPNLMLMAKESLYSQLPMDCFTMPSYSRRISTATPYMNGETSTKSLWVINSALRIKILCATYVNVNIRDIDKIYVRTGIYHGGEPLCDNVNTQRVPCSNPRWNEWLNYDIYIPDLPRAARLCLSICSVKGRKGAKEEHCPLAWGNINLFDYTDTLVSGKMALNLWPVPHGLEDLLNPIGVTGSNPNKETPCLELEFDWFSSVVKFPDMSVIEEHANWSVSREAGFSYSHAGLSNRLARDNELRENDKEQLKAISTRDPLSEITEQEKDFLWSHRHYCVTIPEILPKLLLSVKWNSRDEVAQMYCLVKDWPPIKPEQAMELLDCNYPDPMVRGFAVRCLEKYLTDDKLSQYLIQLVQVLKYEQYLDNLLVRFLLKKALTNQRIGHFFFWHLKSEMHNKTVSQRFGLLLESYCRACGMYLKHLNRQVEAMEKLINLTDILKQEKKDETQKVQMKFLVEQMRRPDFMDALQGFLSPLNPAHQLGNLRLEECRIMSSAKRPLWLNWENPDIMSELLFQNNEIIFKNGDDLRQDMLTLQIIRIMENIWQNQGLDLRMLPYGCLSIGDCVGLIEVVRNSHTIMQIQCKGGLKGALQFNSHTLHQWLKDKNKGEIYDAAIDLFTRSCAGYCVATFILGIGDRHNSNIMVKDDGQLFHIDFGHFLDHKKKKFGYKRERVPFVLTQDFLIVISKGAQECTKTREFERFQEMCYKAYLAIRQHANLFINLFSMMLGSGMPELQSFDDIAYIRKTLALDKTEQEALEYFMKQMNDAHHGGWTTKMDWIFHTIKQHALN
- Sequence (P27986 whole entry partner): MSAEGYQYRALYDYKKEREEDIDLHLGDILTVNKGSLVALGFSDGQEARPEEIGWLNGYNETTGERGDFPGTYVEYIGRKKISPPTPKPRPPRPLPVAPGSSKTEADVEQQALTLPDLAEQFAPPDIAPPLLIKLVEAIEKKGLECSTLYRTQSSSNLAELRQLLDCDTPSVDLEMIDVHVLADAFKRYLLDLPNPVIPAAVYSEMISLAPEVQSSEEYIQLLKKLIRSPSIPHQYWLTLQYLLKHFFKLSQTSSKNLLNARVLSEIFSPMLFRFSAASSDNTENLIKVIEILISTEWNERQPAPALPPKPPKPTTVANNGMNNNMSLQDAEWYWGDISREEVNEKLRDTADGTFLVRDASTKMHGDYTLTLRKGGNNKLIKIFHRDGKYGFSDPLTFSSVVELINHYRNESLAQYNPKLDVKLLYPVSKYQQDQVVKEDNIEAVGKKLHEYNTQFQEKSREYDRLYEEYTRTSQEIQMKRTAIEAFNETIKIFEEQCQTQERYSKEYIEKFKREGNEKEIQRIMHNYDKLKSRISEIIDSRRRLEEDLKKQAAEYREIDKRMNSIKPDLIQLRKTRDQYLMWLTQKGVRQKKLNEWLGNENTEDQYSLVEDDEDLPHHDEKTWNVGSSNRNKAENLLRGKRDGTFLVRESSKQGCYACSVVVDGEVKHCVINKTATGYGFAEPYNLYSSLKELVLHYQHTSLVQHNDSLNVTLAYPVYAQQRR
- RUN_DESCRIPTION: kinobeads assay, PI3Kα
- Format: binding
- CONDITION_NOTES: 1:1 mix of Jurkat and Ramos cell lysates, read-out: Inhibition values (IC50 in μM) as determined in the kinobeads assay, PI3Kα

Answered examples (5):
CC(C)N1Cc2nc(N3CCOC[C@@H]3C)nc(-c3ccc(NC(=O)NCCC#N)cc3)c2C1 [Example 52, 2,2,2-trifluoroacetate]	> 100 µM
C[C@H]1COCCN1c1nc2c(c(-c3ccc(NC(=O)Nc4cccc(O)n4)cc3)n1)CNC2 [Example 25]	1 to 10 µM
C[C@H]1COCCN1C(=O)Nc1ccc(-c2nc(N3CCOC[C@@H]3C)nc3c2CNC3)cc1 [Example 16]	> 100 µM
CCNC(=O)N1Cc2nc(N3CCOC[C@@H]3C)nc(-c3ccc(NC(=O)NC4CC4)cc3)c2C1 [Example 17]	10 to 100 µM
C[C@H]1COCCN1c1nc2c(c(-c3ccc(NC(=O)NC4CC4)cc3)n1)CN(S(C)(=O)=O)C2 [Example 15]	> 100 µM

Prompt line: Return reported IC50; argument: CC(CO)NC(=O)Nc1ccc(-c2nc(N3CCOC[C@@H]3C)nc3c2CN(C(C)C)C3)cc1 (stereo partly drawn) [Example 51, 2,2,2-trifluoroacetate]
Response line: > 100 µM

Prompt line: Proceed to CC(=O)N1Cc2nc(N3CCOC[C@@H]3C)nc(-c3ccc(NC(=O)NCCO)cc3)c2C1 [Example 39]
Response line: 10 to 100 µM
